compounds and their reported pest or weed control at 1000 g/ha
Test system: Amaranthus retroflexus (AMARE)
Test: Example B pre-emergence herbicidal activity, glasshouse pot test
Format: in vivo
Details: 312 h, rate 1000 g/ha, evaluated after 13 days, read-out: Pre-emergence activity AMARE (100=total damage to plant; 0=no damage to plant)
State the answer as a number, implicitly in %.

Some compounds with recorded pest or weed control at 1000 g/ha:
compound: CCc1ccc(-c2ccc(Cl)cc2)cc1C1=C(OC(=O)OCC(C)C)C(C)(C)OC(C)(C)C1=O [Compound D-14]
pest or weed control at 1000 g/ha (%): 0

compound: Cc1ccc(-c2ccc(F)c(F)c2)cc1C1=C(O)C(C)(C)OC(C)(C)C1=O [Compound A-24]
pest or weed control at 1000 g/ha (%): 20

compound: Cc1ccc(-c2ccc(C(C)(C)C)cc2)cc1C1=C(O)C(C)(C)OC(C)(C)C1=O [Compound A-21]
pest or weed control at 1000 g/ha (%): 60

compound: CCc1ccc(-c2ccc(Cl)cc2)cc1C1=C(OC(C)=O)C(C)(C)OC(C)(C)C1=O [Compound D-7]
pest or weed control at 1000 g/ha (%): 0

compound: Cc1ccc(-c2ccc(Cl)nc2Cl)cc1C1=C(O)C(C)(C)OC(C)(C)C1=O [Compound A-58]
pest or weed control at 1000 g/ha (%): 20

In the following, a different compound is considered.
Determine from records and report pest or weed control at 1000 g/ha for CCOC(=O)OC1=C(c2cc(-c3ccc(Cl)cc3)ccc2CC)C(=O)C(C)(C)OC1(C)C [Compound D-13]
0

---

Test system: Amaranthus retroflexus (AMARE)
Assay: Example B post-emergence herbicidal activity, glasshouse pot test
Type: in vivo
Conditions: 312 h, rate 250 g/ha, evaluated after 13 days, read-out: Post-emergence activity AMARE (100=total damage to plant; 0=no damage to plant)
resultType: pest or weed control at 250 g/ha (%)
Write the value in % as a bare number.

Observe how each entry below is paired with its result.
molecule: CCc1ccc(-c2ccc(I)cc2)cc1C1=C(O)C(C)(C)OC(C)(C)C1=O
resultType: pest or weed control at 250 g/ha
reading: 0

molecule: CCc1ccc(-c2ccc(Cl)cc2Cl)cc1C1=C(O)C(C)(C)OC(C)C1=O (single isomer, unassigned)
resultType: pest or weed control at 250 g/ha
reading: 100

molecule: CCc1ccc(-c2ccc(Cl)cc2)cc1C1=C(O)[C@@]2(CC)C=C[C@H](O2)C1=O
resultType: pest or weed control at 250 g/ha
reading: 0

Return value of pest or weed control at 250 g/ha for input Cc1ccc(-c2ccc(Br)cc2)cc1C1=C(O)C(C)(C)OC(C)(C)C1=O , no commentary.
0

---

Parameter pest or weed control at 250 g/ha: see the listing below.
Test system: Alopecurus myosuroides (ALOMY)
Assay: Example A pre-emergence herbicidal activity, glasshouse pot test
Assay type: in vivo
Details: 480 h, rate 250 g/ha, evaluated 20 days after spraying, read-out: Pre-emergence activity ALOMY (100=total damage to plant; 0=no damage to plant)
# output: bare number, implied unit %

Reference set (2 entries):
compound: CCc1ccc(-c2ccc(Cl)cc2)cc1C1=C(O)C(C)(C)OC(C)(CC)C1=O (single isomer, unassigned)
pest or weed control at 250 g/ha (%): 60
//
compound: Cc1ccc(-c2ccc(Cl)c(Cl)c2)cc1C1=C(O)C(C)(C)OC(C)(C)C1=O
pest or weed control at 250 g/ha (%): 30

Supply pest or weed control at 250 g/ha value. Item: CCc1ccc(-c2ccc(Cl)cc2)cc1C1=C(O)C(C)(CC)OC(C)(CC)C1=O (stereo not drawn)
70

Please look at this compound and report its pest or weed control at 250 g/ha: CCc1ccc(-c2ccc(Cl)c(Cl)c2)cc1C1=C(O)C(C)(C)OC(C)(C)C1=O
100

Determine from records and report pest or weed control at 250 g/ha for Cc1ccc(-c2ccc(Cl)c(C(F)(F)F)c2)cc1C1=C(O)C(C)(C)OC(C)(C)C1=O
0

Report pest or weed control at 250 g/ha, nothing else, for this compound: CCc1ccc(-c2ccc(Cl)cc2)cc1C1=C(O)C2(CCCC2)OCC1=O
60

Assign pest or weed control at 250 g/ha to the following record: Cc1ccc(-c2ccc(Cl)cc2C)cc1C1=C(O)C(C)(C)OC(C)(C)C1=O
0

For the compound CCc1ccc(-c2ccc(Cl)cc2Cl)cc1C1=C(O)C(C)(C)OC(C)(C)C1=O , give its measured pest or weed control at 250 g/ha value.
50

State its pest or weed control at 250 g/ha: Cc1ccc(-c2ccc(Cl)cc2Cl)cc1C1=C(O)C(C)(C)OC(C)(C)C1=O
0

Give me measured pest or weed control at 250 g/ha, please, for this compound: CCc1ccc(-c2ccc(Cl)c(F)c2)cc1C1=C(O)C(C)(C)OC(C)(C)C1=O
80

Please report pest or weed control at 250 g/ha for the following compound: CCc1ccc(-c2ccc(Cl)c(C)c2)cc1C1=C(O)C(C)(C)OC(C)(C)C1=O
60

---

Test system: Echinochloa crus-galli (ECHCG)
Experiment: Example A post-emergence herbicidal activity, glasshouse pot test
Assay type: in vivo
Settings: 360 h, rate 125 g/ha, evaluated 15 days after spraying, read-out: Post-emergence activity ECHCG (100=total damage to plant; 0=no damage to plant)
Listed here: items and their measured pest or weed control at 125 g/ha.
// return numeric value only (unit: %, not printed)

compound: CCc1ccc(-c2ccc(Cl)cc2)cc1C1=C(O)C2(CCCC2)OCC1=O
pest or weed control at 125 g/ha (%): 70
//
compound: CCc1ccc(-c2ccc(Cl)cc2Cl)cc1C1=C(O)C(C)(C)OC(C)(C)C1=O
pest or weed control at 125 g/ha (%): 100
//
compound: Cc1ccc(-c2ccc(Cl)cc2)cc1C1=C(O)C(C)(C)OC(C)(C)C1=O
pest or weed control at 125 g/ha (%): 100

Would you kindly look at the next entry?
Write pest or weed control at 125 g/ha of Cc1ccc(-c2ccc(Cl)cc2C)cc1C1=C(O)C(C)(C)OC(C)(C)C1=O ; system used: Echinochloa crus-galli (ECHCG)
80

---

List of pest or weed control at 250 g/ha values.
Test system: Solanum nigrum (SOLNI)
Experiment: Example B post-emergence herbicidal activity, glasshouse pot test
Type: in vivo
Conditions: 312 h, rate 250 g/ha, evaluated after 13 days, read-out: Post-emergence activity SOLNI (100=total damage to plant; 0=no damage to plant)
Give the number; % is assumed, so skip it.

mol: CCc1ccc(-c2ccc(Cl)nc2)cc1C1=C(O)C(C)(C)C(=O)C(C)(C)C1=O
resultType: pest or weed control at 250 g/ha
unitString: %
reading: 20
--
mol: CCc1ccc(-c2ccc(Cl)nc2C)cc1C1=C(O)C(C)(C)C(=O)C(C)(C)C1=O
resultType: pest or weed control at 250 g/ha
unitString: %
reading: 10
--
mol: Cc1ccc(-c2ccc(Cl)cc2F)cc1C1=C(O)C(C)(C)C(=O)C(C)(C)C1=O
resultType: pest or weed control at 250 g/ha
unitString: %
reading: 0

Look up pest or weed control at 250 g/ha of CCc1ccc(-c2ccc(Cl)cc2OC)cc1C1=C(O)C(C)(C)C(=O)C(C)(C)C1=O and report it.
0

Look up and report measured pest or weed control at 250 g/ha for this entry: CCc1ccc(-c2ccc(Cl)nc2Cl)cc1C1=C(O)C(C)(C)C(=O)C(C)(C)C1=O
30

Tell me pest or weed control at 250 g/ha reported for Cc1ccc(-c2ccc(Cl)c(F)c2)cc1C1=C(O)C(C)(C)C(=O)C(C)(C)C1=O
0

Provide pest or weed control at 250 g/ha value for the following molecule: CCc1ccc(-c2ccc(Cl)c(F)c2)cc1C1=C(O)C(C)(C)C(=O)C(C)(C)C1=O
0

Identify the reported pest or weed control at 250 g/ha for the following entry. CCc1ccc(-c2ccc(Cl)cc2F)cc1C1=C(O)C(C)(C)C(=O)C(C)(C)C1=O
0

---

System: Alopecurus myosuroides (ALOMY)
Experiment: Example A post-emergence herbicidal activity, glasshouse pot test
Format: in vivo
Conditions: 360 h, rate 125 g/ha, evaluated 15 days after spraying, read-out: Post-emergence activity ALOMY (100=total damage to plant; 0=no damage to plant)
# if measured pest or weed control at 125 g/ha < 80%: y  # else: n

Before answering, review these 4 worked examples.
molecule: CCc1ccc(-c2ccc(Cl)cc2)cc1C1=C(O)C2(CCCC2)OCC1=O
qualitativeLabel: y
--
molecule: Cc1ccc(-c2ccc(Cl)c(C(F)(F)F)c2)cc1C1=C(O)C(C)(C)OC(C)(C)C1=O
qualitativeLabel: n
--
molecule: CCc1ccc(-c2ccc(Cl)cc2)cc1C1=C(O)C(C)(C)[S+]([O-])C(C)(C)C1=O (centres unmarked)
qualitativeLabel: y
--
molecule: Cc1ccc(-c2ccc(Cl)cc2)cc1C1=C(O)C(C)(C)OC(C)(C)C1=O
qualitativeLabel: y

We now examine a further molecule.
Lab log: compare recorded pest or weed control at 125 g/ha with 80%; is it strictly lower for CCc1ccc(-c2ccc(Cl)cc2)cc1C1=C(O)C(C)(C)SC(C)(C)C1=O ?
y
